Dear all, this message contains GI50 results, target or system HeLa S-3 cells.
Numbers only here, please. The scale is nM.

1. CCCNCCCCNc1nc(NCc2ccc(-c3ccccc3)cc2)c2ncn(C(C)C)c2n1 [Compound 215] = 3000

Prompt: # query: GI50 of entry CC(=O)N[C@H]1CC[C@H](Nc2nc(NCc3ccc(-c4cc(C)cs4)cc3)c3ncn(C(C)C)c3n2)CC1 [Compound 161]
Response: 400

Prompt: Do the same for CC(=O)N[C@H]1CC[C@H](Nc2nc(NCc3ccc(-c4ccccn4)nc3)c3ncn(C(C)C)c3n2)CC1 [Compound 94] please
Response: 70

* * *

MEASURED PROPERTY: melting point

Please review the entries below; each comes with its answer.
1. Cn1cnc2c(NCc3ccc(-c4ccccc4)cc3)nc(N[C@H]3CC[C@H](N)CC3)nc21 [Compound 139] = 182 to 184 °C
2. CC(C)n1cnc2c(NCc3ccc(-c4cccs4)cc3)nc(N[C@H]3CC[C@H](N)CC3)nc21 [Compound 111] = 109 to 110 °C
3. CC(=O)N[C@H]1CC[C@H](Nc2nc(NCc3ccc(-c4ccc(C)s4)cc3)c3ncn(C(C)C)c3n2)CC1 [Compound 158] = 225 to 230 °C
4. CC(=O)N[C@H]1CC[C@H](Nc2nc(NCc3ccc(-c4ccoc4)cc3)c3ncn(C(C)C)c3n2)CC1 [Compound 165] = 241 to 243 °C

Now look at this entry.
Prompt: # query: melting point of entry CC(=O)N[C@H]1CC[C@H](Nc2nc(NCc3ccc(-c4cc(C)cs4)cc3)c3ncn(C(C)C)c3n2)CC1 [Compound 161]
Response: 222 to 223 °C

* * *

Dear all, this message contains GI50 results, target or system HeLa S-3 cells.
Numbers only here, please. The scale is µM.

1) CC(=O)N[C@H]1CC[C@H](Nc2nc(NCc3ccc(-c4ccc(C)s4)cc3)c3ncn(C(C)C)c3n2)CC1 = 0.4

Now look at this entry.
Prompt: # query: GI50 of entry `CC(C)n1cnc2c(NCc3ccc(-c4ccccn4)nc3)nc(N[C@H]3CC[C@H](N)CC3)nc21`
Response: 0.08

* * *

- Tested on: HeLa S-3 cells
MEASURED PROPERTY: GI50 (nM)
Numbers only here, please. The scale is nM.

Please review the entries below; each comes with its answer.
1. CCCN(CCC)CCNc1nc(NCc2ccc(-c3ccccc3)cc2)c2ncn(C(C)C)c2n1 [Compound 210] = 4000
2. CC[C@H](CO)Nc1nc(NCc2ccc(-c3ccc(OC)cc3)cc2)c2ncn(C(C)C)c2n1 [Compound 43] = 8000
3. CC(=O)N[C@@H](C)CNc1nc(NCc2ccc(-c3ccccc3)cc2)c2ncn(C(C)C)c2n1 [Compound 108] = 5000
4. Cc1csc(-c2ccc(CNc3nc(N[C@H]4CC[C@H](N)CC4)nc4c3ncn4C(C)C)cc2)c1 [Compound 160] = 300
5. CCCN[C@H]1CC[C@H](Nc2nc(NCc3ccc(-c4cc(C)cs4)cc3)c3ncn(C(C)C)c3n2)CC1 [Compound 162] = 300

Prompt: # query: GI50 of entry CC(C)n1cnc2c(NCc3ccc(-c4ccccc4)nc3)nc(N[C@H]3CC[C@H](N)CC3)nc21 [Compound 86]
Response: 30

Prompt: Do the same for CC(=O)N[C@H]1CC[C@H](Nc2nc(NCc3ccc(-c4cc(C)cc(C)c4)cc3)c3ncn(C(C)C)c3n2)CC1 [Compound 150] please
Response: 200

Prompt: Do the same for CC(C)n1cnc2c(NCc3ccc(-c4ccc(F)c(Cl)c4)cc3)nc(N[C@H]3CC[C@H](N)CC3)nc21 [Compound 14] please
Response: 400

Prompt: Do the same for CC(=O)NCCCNc1nc(NCc2ccc(-c3ccccc3)cc2)c2ncn(C(C)C)c2n1 [Compound 212] please
Response: 3000

Prompt: Do the same for CC[C@H](CO)Nc1nc(NCc2ccc(-c3ccc(C(O)CO)cc3)cc2)c2ncn(C(C)C)c2n1 (stereo partly drawn) [Compound 34] please
Response: 6000

Prompt: Do the same for CC(=O)N[C@H]1CCCC[C@@H]1Nc1nc(NCc2ccc(-c3ccccc3)cc2)c2ncn(C(C)C)c2n1 [Compound 60] please
Response: 6000

Prompt: Do the same for CC(C)n1cnc2c(NCc3ccc(-c4ccoc4)cc3)nc(N[C@H]3CC[C@H](N)CC3)nc21 [Compound 164] please
Response: 100
